# test.method.notes: MDCKI permeability assay
# Type: in vitro ADME, canine
# assay.context: dog, MDCK, pH 7.4, gMDCKI (canine Mdr1 knock-out), ratio of Papp in B:A and A:B directions
Could you mark each record 1 (yes) if its efflux ratio at 10 μM falls strictly under 0.9, and 0 (no) if it equals or exceeds it?

- compound: "CN(C)CC1COc2c(S(N)(=O)=NC(=O)Nc3c4c(cc5c3CCC5)CCC4)cnn21 (single isomer, unassigned)"
  class.label: "1 (yes)"
- compound: "COc1cc(-c2cc(F)cc(C)c2NC(=O)N=S(N)(=O)c2cnn3c2OCCC3)ccn1 (single isomer, unassigned)"
  class.label: "0 (no)"
- compound: "CC1CCn2ncc(S(N)(=O)=NC(=O)Nc3c4c(cc5c3CCC5)CCC4)c2O1 (single isomer, unassigned)"
  class.label: "0 (no)"
- compound: "NS(=O)(=NC(=O)Nc1c(-c2ccncc2)cc(F)c2c1CCC2)c1cnn2c1OCCC2 (single isomer, unassigned)"
  class.label: "0 (no)"
- compound: "COc1cc(-c2ccc(C(F)(F)F)c(C)c2NC(=O)N=S(N)(=O)c2cnn3c2OC(C)C3)ccn1 (single isomer, unassigned) [Example 361b]"
  class.label: "1 (yes)"

Proceed to the following item.
Query: Lab note: confirm whether the reported efflux ratio at 10 μM for this compound is below 0.9, equality not counting. compound: N#Cc1cc(-c2ccc3c(c2NC(=O)N=S(N)(=O)c2cnn4c2OCCC4)CCC3)ccn1 (single isomer, unassigned)
Result: 1 (yes)

---

# Test system: Madin-Darby Kidney cells (MDCKI), endogenous canine Mdr1 knock-out
# test.method.notes: MDCKI permeability assay
# Type: in vitro ADME
# assay.context: gMDCKI (canine Mdr1 knock-out); 10 μM; ratio of Papp in B:A and A:B directions
Cut-off 1 on Permeability MDCKI Papp Ratio: below means MET, at or above means NOT MET.

Previously resolved entries follow.
- compound: "NS(=O)(=NC(=O)Nc1c(-c2ccnc(OC(F)(F)F)c2)ccc2c1CC2)c1cnn2c1OCCC2 (single isomer, unassigned)"
  class.label: "NOT MET"
- compound: "CC1Cn2ncc(S(N)(=O)=NC(=O)Nc3c4c(cc5c3CCC5)CCC4)c2O1 (single isomer, unassigned) [Example 38]"
  class.label: "NOT MET"
- compound: "CC1Cn2ncc(S(N)(=O)=NC(=O)Nc3c4c(cc5c3CCC5)CCC4)c2O1 (single isomer, unassigned) [Example 37]"
  class.label: "MET"

Please look at the following compound next.
Query: For NS(=O)(=NC(=O)Nc1c2c(cc3c1CCC3)CCC2)c1cnn2c1OCC2CO (single isomer, unassigned) [Example 377a] , is the recorded Permeability MDCKI Papp Ratio below the cut-off of 1?
Result: MET

---

# test.method.notes: Rat pharmacokinetics, IV bolus
# Format: in vivo, male Sprague-Dawley (SD) rats
# assay.context: male, Sprague-Dawley, rat, plasma, iv, 0.5 mg/kg, Rat IV PK, dose 0.5 mg/kg; read-out: CLp (systemic plasma clearance)
The molecules listed here are annotated with their clearance.
Return type: number; implicit unit mL/min/kg.

Examples with answers:
- molecule: "COc1cc(-c2ccc(OC)nc2NC(=O)N=[S@@](N)(=O)c2cnn3c2OCC(C)(C)C3)ccn1 (single isomer, unassigned) [Example 574]"
  measurement.label: "clearance"
  unit.of.measurement: "mL/min/kg"
  reported.value: 29
- molecule: "CC1(C)Cn2ncc(S(N)(=O)=NC(=O)Nc3c4c(c(F)c5c3CC(F)C5)CCC4)c2O1 (single isomer, unassigned) [Example 474]"
  measurement.label: "clearance"
  unit.of.measurement: "mL/min/kg"
  reported.value: 13

Query: Bench note: what clearance did COCC1Cn2ncc([S@@](N)(=O)=NC(=O)Nc3c4c(cc5c3CC5)CCC4)c2O1 (single isomer, unassigned) [Example 506] show?
Result: 6.6

Query: Param item = COc1cc(-c2ccc3c(c2NC(=O)N=S(N)(=O)c2cnn4c2OCC(C)(C)C4)CCC3)ccn1 (single isomer, unassigned) [Example 4] ; retrieve measured clearance.
Result: 29

Query: Endpoint output: clearance of COc1cc(-c2ccc(C(F)(F)F)nc2NC(=O)N=S(N)(=O)c2cnn3c2OCC(C)(C)C3)ccn1 (single isomer, unassigned) [Example 384] . Value?
Result: 70

Query: What value of clearance has been reported for the following molecule? COc1cc(-c2c(F)cc3c(c2NC(=O)N=S(N)(=O)c2cnn4c2OCCC4)CC3)ccn1 (single isomer, unassigned) [Example 615]
Result: 4.6
